Parameter isobaric coefficient of expansion: see the listing below.
# Test protocol: isobaric coefficient of expansion
# Study conditions: 288.15 K; 10000 kPa; Liquid; Microcalorimeter

Molecule: CCCCCC[n+]1ccn(C)c1.O=S(=O)([N-]S(=O)(=O)C(F)(F)F)C(F)(F)F
isobaric coefficient of expansion: 0.000658 1/K

Molecule: CCCC[n+]1cccc(C)c1.F[B-](F)(F)F [1-butyl-3-methylpyridinium tetrafluoroborate]
isobaric coefficient of expansion: 0.000593 1/K

Molecule: CCn1cc[n+](C)c1.F[B-](F)(F)F [1-ethyl-3-methylimidazolium tetrafluoroborate]
isobaric coefficient of expansion: 0.000602 1/K

Molecule: CCCCCCn1cc[n+](C)c1.F[B-](F)(F)F [1-hexyl-3-methylimidazolium tetrafluoroborate]
isobaric coefficient of expansion: 0.000606 1/K

Molecule: CCn1cc[n+](C)c1.O=S(=O)([N-]S(=O)(=O)C(F)(F)F)C(F)(F)F
isobaric coefficient of expansion: 0.000653 1/K

Molecule: CCCCCCCC[n+]1ccn(C)c1.F[B-](F)(F)F [1-methyl-3-octylimidazolium tetrafluoroborate]
isobaric coefficient of expansion: 0.000606 1/K
